Target: T1, human CD11a (human) (UniProt P20701)
T1 sequence (looked up): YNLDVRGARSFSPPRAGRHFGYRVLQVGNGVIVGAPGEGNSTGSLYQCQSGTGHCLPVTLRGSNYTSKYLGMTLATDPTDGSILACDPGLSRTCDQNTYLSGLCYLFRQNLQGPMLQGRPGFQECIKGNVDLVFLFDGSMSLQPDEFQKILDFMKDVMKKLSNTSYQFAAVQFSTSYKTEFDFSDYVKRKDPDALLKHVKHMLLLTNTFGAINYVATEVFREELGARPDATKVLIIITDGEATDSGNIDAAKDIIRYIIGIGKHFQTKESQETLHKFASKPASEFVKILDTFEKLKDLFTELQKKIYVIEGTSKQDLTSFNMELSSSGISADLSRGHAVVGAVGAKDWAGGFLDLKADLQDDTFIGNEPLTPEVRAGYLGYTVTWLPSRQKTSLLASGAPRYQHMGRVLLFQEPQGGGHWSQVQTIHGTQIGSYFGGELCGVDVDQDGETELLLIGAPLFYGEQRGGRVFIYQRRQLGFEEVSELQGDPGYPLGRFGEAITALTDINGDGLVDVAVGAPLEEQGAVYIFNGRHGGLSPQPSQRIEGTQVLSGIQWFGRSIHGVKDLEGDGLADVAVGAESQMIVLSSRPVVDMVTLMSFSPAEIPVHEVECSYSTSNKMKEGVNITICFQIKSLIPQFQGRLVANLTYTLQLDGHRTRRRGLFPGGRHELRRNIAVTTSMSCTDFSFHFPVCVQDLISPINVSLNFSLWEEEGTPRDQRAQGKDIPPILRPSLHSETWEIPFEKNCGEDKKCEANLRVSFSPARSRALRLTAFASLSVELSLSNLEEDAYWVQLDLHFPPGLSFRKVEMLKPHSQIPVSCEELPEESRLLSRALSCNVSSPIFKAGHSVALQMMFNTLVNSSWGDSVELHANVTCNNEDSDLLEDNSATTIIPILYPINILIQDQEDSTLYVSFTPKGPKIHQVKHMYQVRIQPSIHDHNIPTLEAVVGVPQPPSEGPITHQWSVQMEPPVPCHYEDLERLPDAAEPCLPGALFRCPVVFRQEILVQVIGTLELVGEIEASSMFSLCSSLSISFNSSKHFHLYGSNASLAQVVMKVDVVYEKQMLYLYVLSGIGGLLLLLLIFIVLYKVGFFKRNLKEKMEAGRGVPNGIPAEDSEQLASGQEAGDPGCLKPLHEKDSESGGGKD
Experiment: FACScan, Jurkat cells
Readout Name: Var.EC50/HuIgG1 EC50
Form rule: numeric answer, no unit written next to it.

Prompt line: Identify Var.EC50/HuIgG1 EC50 associated with the binder GluH56Ala variant IgG1 (antibody, V domains shown) VH: EVQLVESGGGLVQPGGSLRLSCAASGYSFTGHWMNWVRQAPGKGLEWVGMIHPSDSATRYNQKFKDRFTISVDKSKNTLYLQMNSLRAEDTAVYYCARGIYFYGTTYFDYWGQGTLVTVSS VL: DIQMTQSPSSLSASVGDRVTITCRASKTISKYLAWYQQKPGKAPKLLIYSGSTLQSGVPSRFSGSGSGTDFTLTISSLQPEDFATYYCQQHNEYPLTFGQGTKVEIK
Response line: 4

Prompt line: Identify Var.EC50/HuIgG1 EC50 associated with the binder TyrH100cAla variant IgG1 (antibody, V domains shown) VH: EVQLVESGGGLVQPGGSLRLSCAASGYSFTGHWMNWVRQAPGKGLEWVGMIHPSDSETRYNQKFKDRFTISVDKSKNTLYLQMNSLRAEDTAVYYCARGIYFYGTTAFDYWGQGTLVTVSS VL: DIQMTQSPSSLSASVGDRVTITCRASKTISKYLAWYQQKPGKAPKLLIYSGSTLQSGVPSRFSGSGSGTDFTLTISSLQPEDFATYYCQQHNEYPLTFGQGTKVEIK
Response line: 7.6

Prompt line: Identify Var.EC50/HuIgG1 EC50 associated with the binder SerH28Ala variant IgG1 (antibody, V domains shown) VH: EVQLVESGGGLVQPGGSLRLSCAASGYAFTGHWMNWVRQAPGKGLEWVGMIHPSDSETRYNQKFKDRFTISVDKSKNTLYLQMNSLRAEDTAVYYCARGIYFYGTTYFDYWGQGTLVTVSS VL: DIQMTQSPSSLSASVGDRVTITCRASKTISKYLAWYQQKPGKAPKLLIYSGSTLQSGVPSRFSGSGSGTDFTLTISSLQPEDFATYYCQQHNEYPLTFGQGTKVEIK
Response line: 6.9

Prompt line: Identify Var.EC50/HuIgG1 EC50 associated with the binder H2C9 variant IgG1 (antibody, V domains shown) VH: EVQLVESGGGLVQPGGSLRLSCAASGYSFTGHWMNWVRQAPGKGLEWVGMIAPAASNTRYNQKFKDRFTISVDKSKNTLYLQMNSLRAEDTAVYYCARGIYFYGTTYFDYWGQGTLVTVSS VL: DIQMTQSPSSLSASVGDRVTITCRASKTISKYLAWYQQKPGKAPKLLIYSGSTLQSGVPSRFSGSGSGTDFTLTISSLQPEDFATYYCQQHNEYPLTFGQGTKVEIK
Response line: 34.3

Prompt line: Identify Var.EC50/HuIgG1 EC50 associated with the binder H2A3 variant IgG1 (antibody, V domains shown) VH: EVQLVESGGGLVQPGGSLRLSCAASGYSFTGHWMNWVRQAPGKGLEWVGMIAPSDAETRYNQKFKDRFTISVDKSKNTLYLQMNSLRAEDTAVYYCARGIYFYGTTYFDYWGQGTLVTVSS VL: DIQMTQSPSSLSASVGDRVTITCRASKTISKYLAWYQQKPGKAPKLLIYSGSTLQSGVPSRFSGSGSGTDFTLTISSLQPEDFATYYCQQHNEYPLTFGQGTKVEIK
Response line: 4.6
